Data origin, for the record: PubChem BioAssay

Assay: growth inhibitors of H69AR lung tumor, primary screen, human, duplicate replicates (AID 580);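 note: 100% = mean luminescence of untreated wells and 0% = no signal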
Details: H69AR lung tumor cells viability, ATP luminescence, 72 h; at 10 µM; stronger effect = lower value
Threshold 90%. viability below it: yes (1). viability at it or above: no (0).

> print(dat)
                                    compound  class.name
 1  O=C(Cn1cnc2c(oc3ccccc32)c1=O)N1CCN(c2ccccc2)CC1     yes (1)
 2  CCOc1ccc(C(=O)N(CN2CCCC2=O)c2ccc(C)cc2)cc1      no (0)
 3  COc1cc(C2CC(=O)NC3=C2C(=O)CC(C)(C)C3)ccc1O (stereo unspecified)      no (0)
 4  O=C(CN(Cc1ccc2c(c1)OCO2)C(=O)CNS(=O)(=O)c1ccccc1)NCc1ccco1      no (0)
 5  Cc1ccc(-c2noc(CCC(=O)NCC3CCN(Cc4cccc(C)c4)CC3)n2)cc1     yes (1)
 6  CN(C)CCCN1C(=O)C(=O)/C(=C(/O)c2ccncc2)C1c1cccc(Br)c1 (stereo unspecified)      no (0)
 7    COc1ccc(NC(=O)Nc2ccc(C)cc2OC(F)F)cc1OC      no (0)
 8  CC(C)(O)C1=NOC(c2ccccc2)C1 (stereo unspecified)     yes (1)
 9        O=C(Nc1ccccn1)NC(C(F)(F)F)C(F)(F)F      no (0)
10  CSCC[C@@H](Nc1nc(-c2ccccc2)nc2c1oc1ccccc12)C(=O)O      no (0)

###

Assay: growth suppression of yeast trafficking mutant, preliminary HTS, modulators of trafficking downstream of Golgi apparatus project, 1536-format plate, OD 615 nm (AID 637)
Settings: yeast transport mutant growth, absorbance 615 nm, 18 h; stronger effect = higher value
ENDPOINT_NAME: inhibition (%)

> print(dat)
                                    compound  endpoint.name  units.symbol  measured.value
 1  COc1ccc(/C(O)=C2/C(=O)C(=O)N(CC3CCCO3)C2c2cccc(OC)c2)cc1 (stereo not drawn)     inhibition             %             2.3
 2                 O=c1cnnc(NCc2ccccc2)[nH]1     inhibition             %           -5.33
 3              COc1ccc2ccccc2c1CN1CCN(C)CC1     inhibition             %           -0.66
 4  CCOC(=O)c1[nH]c(C)c(C(=O)NCC2CCCO2)c1C (stereo not drawn)     inhibition             %           -0.32
 5  CC(O)c1n(C)c(Cl)c[n+]1C (stereo not drawn)     inhibition             %            6.39
 6  O=c1c2cc(N3CCOCC3)ccc2[nH]c(=S)n1CCCN1CCCCC1     inhibition             %           -8.36
 7  CCOC(=O)c1ccc(NC(=O)c2ccc(NS(C)(=O)=O)cc2)cc1     inhibition             %           -4.92
 8   COc1cccc(OC)c1OCCN1CCN(C(=O)c2ccco2)CC1     inhibition             %           -4.92
 9  Cc1cc2c(=O)n(Cc3ccco3)c(SCC(=O)NCc3ccco3)nc2s1     inhibition             %             1.9
10     CS(=O)(=O)NCc1ccc(C(=O)NCc2ccccc2)cc1     inhibition             %               4
11  O=C(OCC(=O)N1CCC(Cc2ccccc2)CC1)c1ccc[nH]c1=O     inhibition             %           -12.3
12  Cc1c(/C(O)=C2/C(=O)C(=O)N(CCN3CCOCC3)C2c2cccnc2)cnn1-c1ccccc1 (stereo not drawn)     inhibition             %           -1.09
13   CCOc1ccc2cc(C#N)c(SCC(=O)N3CCOCC3)nc2c1     inhibition             %            1.94
14                O=c1[nH]c2cccnc2n1Cc1ccco1     inhibition             %            0.83
15  O=C(CSC1=NC(=O)C(Cc2ccccc2)C(=O)N1)NC1CCCCC1 (stereo not drawn)     inhibition             %            23.1
16  CCn1cc(C2=NOC(C(=O)Nc3cc(C)nn3-c3ccccc3)C2)c(C)n1 (stereo not drawn)     inhibition             %           -8.25
17  CC(=O)c1cccc(N(CC(=O)N2CCCC2)S(C)(=O)=O)c1     inhibition             %            0.48
18    CCc1nc(N)c(C#N)c(-c2ccc(OC)c(OC)c2)c1C     inhibition             %            3.33
19  CC(=O)c1c(C)[nH]c(C(=O)N2CCN(C(=O)c3ccco3)CC2)c1C     inhibition             %           -0.49
20           C=Cn1c(C(=O)O)cc(CC)c1-c1ccccc1     inhibition             %           -7.42
21        CCCn1cc(SCC(=O)NCc2ccco2)c2ccccc21     inhibition             %            0.48
22  CCOC(=O)c1c(NC(=O)CSc2nnc(-c3ccc(OC)cc3)o2)sc2c1CCC2     inhibition             %           -1.77
23       Cc1ccc(SCCNS(=O)(=O)c2ccc(F)cc2)cc1     inhibition             %           -2.42

###

Molecular target: Receptor tyrosine-protein kinase erbB-2 (Homo sapiens)
Assay: reducers of endogenous Her2 protein level, primary screen, SKBR3 breast tumor cells, AlphaScreen, ATP viability (AID 461);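 note: lower value means less Her2 protein in the cells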
Conditions: 18-24 h, at 10 µM, stronger effect = lower value
Measured Her2 level accompanies every entry in the list below.
ENDPOINT_NAME: Her2 level (%)

> print(dat)
                                    molecule                       experimental.system  endpoint.name  measured.value
 1  CC1CN(S(=O)(=O)c2cccc(C(=O)OCc3cc(=O)oc4cc(O)ccc34)c2)CC(C)O1 (stereo unspecified)  Receptor tyrosine-protein kinase erbB-2 (Homo sapiens)     Her2 level              87
 2  Cn1c(=O)c2c(nc(SCC(=O)NCc3ccco3)n2C)n(C)c1=O  Receptor tyrosine-protein kinase erbB-2 (Homo sapiens)     Her2 level            98.5
 3       Cn1c(/C(C#N)=C/Nc2ccccn2)nc2ccccc21  Receptor tyrosine-protein kinase erbB-2 (Homo sapiens)     Her2 level             106
 4  Cc1nnc2n(Cc3ccccc3)c(=O)c3c4c(sc3n12)COC(C(C)C)C4 (stereo unspecified)  Receptor tyrosine-protein kinase erbB-2 (Homo sapiens)     Her2 level              69
 5  COc1ccc(CCn2c(-c3ccco3)nc3nc4ccccc4nc32)cc1  Receptor tyrosine-protein kinase erbB-2 (Homo sapiens)     Her2 level             110
 6  C=C(C)CSc1nnc(-c2cccc(S(=O)(=O)N(C)C)c2)n1-c1cc(OC)ccc1OC  Receptor tyrosine-protein kinase erbB-2 (Homo sapiens)     Her2 level            93.5
 7   O=C(OCc1nnc(-c2ccccc2)o1)c1ccc2ccccc2n1  Receptor tyrosine-protein kinase erbB-2 (Homo sapiens)     Her2 level             116
 8  COc1ccc(S(=O)(=O)N(C)CC(=O)N2CCCCC2)cc1Cl  Receptor tyrosine-protein kinase erbB-2 (Homo sapiens)     Her2 level             106
 9               COC(=O)Nc1ccc(C)cc1NC(=O)OC  Receptor tyrosine-protein kinase erbB-2 (Homo sapiens)     Her2 level             102
10       O=C(Nc1ccc(N2CCOCC2)c(F)c1)c1ccncc1  Receptor tyrosine-protein kinase erbB-2 (Homo sapiens)     Her2 level              99
11  CCOc1ccc(C2/C(=C(/O)c3ccc(OC)cc3)C(=O)C(=O)N2c2cc(C)on2)cc1OC (stereo unspecified)  Receptor tyrosine-protein kinase erbB-2 (Homo sapiens)     Her2 level             144

###

Test: HUVEC growth inhibition – cell-based, human, primary screen (AID 575);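 note: 100% = median of untreated cell wells with 0.1% DMSO on each plate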
Conditions: HUVEC proliferation, CellTiter-Glo luminescence, 72 h; at 10 µM
The source made the active and inactive calls.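 The calls were made as follows: active = viability at or below 30% in both replicate assays; inconclusive = viability at or below 30% in just one of the two assays; inactive = the rest.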
Outcomes: active, inactive

> print(dat)
                                    molecule  class.name
 1  O=C(CN1CCOCC1)N1CCCc2c1c(=O)oc1ccc(OCc3ccccc3)cc21    inactive
 2               Cc1ccc(N=C2NC(=O)CS2)c(C)c1    inactive
 3  Cc1cc(NC(=O)CSc2ccc3nnc(-c4cccc(F)c4)n3n2)no1    inactive
 4  CCOC(=O)c1c(NC(=O)c2cccs2)sc2c1CCN(C(=O)OCC)C2      active
 5  CCOC(=O)C1CCCN(Cc2nc(N)nc(Nc3ccc(C)cc3)n2)C1 (centres undefined)    inactive
 6       Cc1ccc(Nc2nc(N)nc(CN3CCCCCC3)n2)cc1    inactive
 7        CC1CCN(C(=O)CSc2nc3ccccc3[nH]2)CC1    inactive
 8  Cc1ccc(-n2c(=O)c3sccc3n(CC(=O)NCc3ccco3)c2=O)cc1    inactive
 9          Cc1nc2ccc(N3C(=O)CCC3=O)cc2[nH]1    inactive
10              CCSc1nnc(NC(=O)c2csc(C)c2)s1    inactive
11             O=C(NCCCn1ccnc1)c1csc2ccccc12    inactive
12       Cn1cnnc1SCC(=O)Nc1sc2c(c1C#N)CCCCC2    inactive
13  Cc1ccc(S(=O)(=O)N2CCC(C(=O)N3CCC[C@H]3C(=O)NCc3ccccc3)CC2)cc1    inactive
14  Cc1cccc(N2C(=O)CC(N3CCN(Cc4ccc(Cl)cc4)CC3)C2=O)c1 (centres undefined)    inactive
15           COc1ccc2nc(NC(=O)c3ccoc3C)sc2c1      active
16            CC(=O)Nc1ccc(OC(=O)c2cccs2)cc1    inactive
17  Cc1ccc(N2CC(C)Cn3c2nc2c3c(=O)n(CC(=O)OCc3ccccc3)c(=O)n2C)cc1C (centres undefined)    inactive
18          CN(C)c1nc(N)nc(-c2nc3ccccc3s2)n1    inactive
19  O=c1[nH]cnc2c1nc(SCc1ccccc1)n2C1OC(CO)C(O)C1O (centres undefined)    inactive
20  Cc1cccc(N2C(=O)CC(Sc3nc(C)c4c(n3)CCCC4)C2=O)c1 (centres undefined)    inactive
21  Cn1c(SCC(N)=O)nnc1C1CCN(C(=O)NCc2ccccc2)CC1    inactive
22  O=C1N(c2ccccc2)C2CS(=O)(=O)CC2N1c1ccc(Br)cc1 (centres undefined)    inactive
23  CCCCC(CC)CNC(=O)C1CCCN(S(=O)(=O)c2cnc[nH]2)C1 (centres undefined)    inactive
24  O=C(c1cnn2c(C(F)F)cc(C3CC3)nc12)N1CCOCC1    inactive
